target: Btk SH2 domain R372G (XLA mutation) (human, UniProt Q06187 271-383, R372G); assay: FP
Sequence (Q06187 271-383 R372G): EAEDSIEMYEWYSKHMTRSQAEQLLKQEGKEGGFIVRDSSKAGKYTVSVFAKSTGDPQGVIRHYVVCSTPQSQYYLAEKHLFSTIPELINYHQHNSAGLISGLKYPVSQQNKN
Square brackets hold non-standard residues; d marks the D form. Ends that are not written are not given here. pY = N[C@@H](Cc1ccc(OP(=O)(O)O)cc1)C(=O)O
measuredEndpoint: Kd (µM)
Just the number in µM, nothing appended.

Q: Give a short answer stating reported Kd for ADND[pY]IIPLPD (also: FITC label, end not given here) [FITC-labeled pY-peptide (ADNDpYIIPLPD)] .
Result: 5.8
